Origin of measurements: ChEMBL document CHEMBL1961873

# System: Tyrosine-protein kinase ABL1 (Homo sapiens), P00519 [M351T]
# Condition Label: at 0.1 µM
# Lookup of reported inhibition keyed by entry
Field format: number, assumed %, no unit text.

Example entries begin here.
[
  {
    "Smiles Notation": "COc1ccc(-c2ccncc2)cc1C(N)=O",
    "Assay Metric": "inhibition",
    "Unit Info": "%",
    "Test Value": -0.68
  },
  {
    "Smiles Notation": "COc1cc(C=NNc2ncnc3c2cnn3-c2ccccc2)ccc1O",
    "Assay Metric": "inhibition",
    "Unit Info": "%",
    "Test Value": 40.1
  },
  {
    "Smiles Notation": "CCCN1CCC=C(c2ccc(Nc3nc(Nc4ccccc4C(N)=O)c4cc[nH]c4n3)c(C)c2)C1",
    "Assay Metric": "inhibition",
    "Unit Info": "%",
    "Test Value": 1.17
  }
]

So for COc1cc2c(cc1Nc1nc(N3CCc4ccccc43)c3cc[nH]c3n1)N(C(=O)CN(C)C)CC2 , the logged inhibition turned out to be 0.88

According to the records, this compound CS(=O)(=O)CCNCc1ccc(-c2ccc3ncnc(Nc4ccc(OCc5cccc(F)c5)c(C(F)(F)F)c4)c3c2)o1 displays inhibition of 4.03
